Source: patent US6498125B2

Below, each entry is listed alongside its reported Post-emergence action: Abutilon (rating).
Tested on: Abutilon
protocol.summary: Example B4: post-emergence action, 250 g/ha
Assay type: in vivo
protocol.conditions: 250 g of AS/ha, sprayed in the 2-3-leaf stage, 0.2% X77, 3 weeks, nine-level scale 1=complete damage, 9=no effect
// return just the number, without any unit appended

Use these answered entries as a reference point.
Field Post-emergence action: Abutilon (rating) (entry CS(=O)(=O)c1ccc(C(=O)C2=C(O)C3CCC(C3)C2=O)c(C(F)(F)F)n1 (centres unmarked) ) reads 2

Field Post-emergence action: Abutilon (rating) (entry CSc1ccc(C(=O)C2=C(O)C3CCC(C3)C2=O)c(C(F)(F)F)n1 (centres unmarked) ) reads 3

Field Post-emergence action: Abutilon (rating) (entry C#CCOc1ccc(C(=O)C2=C(O)C3CCC(C3)C2=O)c(C(F)(F)F)n1 (centres unmarked) ) reads 5

Field Post-emergence action: Abutilon (rating) (entry COc1ccc(C(=O)C2=C(O)C3CCC(C3)C2=O)c(C(F)(F)F)n1 (centres unmarked) ) reads 3

In the following, a different compound is considered.
Field Post-emergence action: Abutilon (rating) (entry O=C(C1=C(O)C2CCC(C2)C1=O)c1ccc(Cl)nc1C(F)(F)F (centres unmarked) ) reads 2

====

System: Monocotyledonous and dicotyledonous test plants
protocol.summary: Example B2: post-emergence herbicidal action, 2 kg of AS/ha
Format: in vivo
Parameters: key: 1 = complete damage, 9 = no effect
protocol.conditions: test plant Solanum, 4- to 6-leaf stage, about 18 days, scale 1-9
Text: […]
Below, each entry is listed alongside its reported post-emergence action rating, Solanum.
// return just the number, without any unit appended

Use these answered entries as a reference point.
Field post-emergence action rating, Solanum (entry Cc1nc(C(F)(F)C(F)(F)C(F)(F)C(F)(F)F)ccc1C(=O)C1=C(O)C2CCC(C2)C1=O (stereo not shown) [Compound 1.411] ) reads 2

Field post-emergence action rating, Solanum (entry Cc1nc(C(F)(F)F)ccc1C(=O)C1=C(O)C(C)(C)C=CC1=O [Compound 5.085] ) reads 2

More entries:
Field post-emergence action rating, Solanum (entry Cc1cc(C(F)(F)F)ncc1C(=O)C1=C(O)C2CCC(C2)C1=O (stereo not shown) [Compound 1.362] ) reads 2

====

Below, each entry is listed alongside its reported post-emergence action rating, Solanum.
System: Monocotyledonous and dicotyledonous test plants
protocol.summary: Example B2: post-emergence herbicidal action, 2 kg of AS/ha
Format: in vivo
Set-up: key: 1 = complete damage, 9 = no effect
protocol.conditions: test plant Solanum, 4- to 6-leaf stage, about 18 days, scale 1-9
// return just the number, without any unit appended

Use these answered entries as a reference point.
The recorded post-emergence action rating, Solanum with Monocotyledonous and dicotyledonous test plants for CCOC(=O)OC1=C(C(=O)c2ccc(C(F)(F)F)nc2C)C(=O)C2CCC1C2 (centres unmarked) [Compound 1.409] was 1

The recorded post-emergence action rating, Solanum with Monocotyledonous and dicotyledonous test plants for Cc1nc(C(F)(F)Cl)ccc1C(=O)C1=C(O)C(C)(C)ON(C)C1=O [Compound 4.124] was 1

The recorded post-emergence action rating, Solanum with Monocotyledonous and dicotyledonous test plants for C#CCOc1nc(C(F)(F)F)ccc1C(=O)C1=C(O)C2CCC(C2)C1=O (centres unmarked) [Compound 1.048] was 1

The recorded post-emergence action rating, Solanum with Monocotyledonous and dicotyledonous test plants for Cc1nc(C(F)(F)F)ccc1C(=O)C1=C(Cl)C2CCC(C2)C1=O (centres unmarked) [Compound 1.398] was 2

The recorded post-emergence action rating, Solanum with Monocotyledonous and dicotyledonous test plants for Cc1nc(C(F)(F)Cl)ccc1C(=O)C1=C(O)C2CCC(C2)C1=O (centres unmarked) [Compound 1.195] was 2

More entries:
The recorded post-emergence action rating, Solanum with Monocotyledonous and dicotyledonous test plants for C=CC(=O)OC1=C(C(=O)c2ccc(C(F)(F)F)nc2C)C(=O)C2CCC1C2 (centres unmarked) [Compound 1.405] was 2

The recorded post-emergence action rating, Solanum with Monocotyledonous and dicotyledonous test plants for Cc1nc(C(F)(F)F)ccc1C(=O)C1=C(Sc2ccccc2)C2CCC(C2)C1=O (centres unmarked) [Compound 1.381] was 2

The recorded post-emergence action rating, Solanum with Monocotyledonous and dicotyledonous test plants for O=C(C1=C(O)C2CCC(C2)C1=O)c1ccc(C(F)(F)F)nc1C(F)(F)F (centres unmarked) [Compound 1.008] was 2

====

Tested on: Amaranthus
protocol.summary: Example B3: pre-emergence action, 250 g/ha
Assay type: in vivo
protocol.conditions: 250 g of AS/ha, sprayed immediately after sowing, 3 weeks, nine-level scale 1=complete damage, 9=no effect
readout.type: Pre-emergence action: Amaranthus (rating)
// return just the number, without any unit appended

Use these answered entries as a reference point.
Field Pre-emergence action: Amaranthus (rating) (entry COc1ccc(C(=O)C2=C(O)C3CCC(C3)C2=O)c(C(F)(F)F)n1 (stereo not shown) [Compound 1.347] ) reads 2

Field Pre-emergence action: Amaranthus (rating) (entry CCSc1ccc(C(=O)C2=C(O)C3CCC(C3)C2=O)c(C(F)(F)F)n1 (stereo not shown) [Compound 1.341] ) reads 9

Field Pre-emergence action: Amaranthus (rating) (entry O=C(C1=C(O)C2CCC(C2)C1=O)c1ccc(Cl)nc1C(F)(F)F (stereo not shown) [Compound 1.355] ) reads 1

Field Pre-emergence action: Amaranthus (rating) (entry O=C(C1=C(O)C2CCC(C2)C1=O)c1ccc(OCC(F)(F)F)nc1C(F)(F)F (stereo not shown) [Compound 1.349] ) reads 3

More entries:
Field Pre-emergence action: Amaranthus (rating) (entry CC[S+]([O-])c1ccc(C(=O)C2=C(O)C3CCC(C3)C2=O)c(C(F)(F)F)n1 (stereo not shown) [Compound 1.343] ) reads 4

Field Pre-emergence action: Amaranthus (rating) (entry CS(=O)(=O)c1ccc(C(=O)C2=C(O)C3CCC(C3)C2=O)c(C(F)(F)F)n1 (stereo not shown) [Compound 1.339] ) reads 1

Field Pre-emergence action: Amaranthus (rating) (entry CSc1ccc(C(=O)C2=C(O)C3CCC(C3)C2=O)c(C(F)(F)F)n1 (stereo not shown) [Compound 1.335] ) reads 2

====

System: Monocotyledonous and dicotyledonous test plants
protocol.summary: Example B2: post-emergence herbicidal action, 2 kg of AS/ha
Format: in vivo
Design: key: 1 = complete damage, 9 = no effect
protocol.conditions: test plant Avena, 4- to 6-leaf stage, about 18 days, scale 1-9
Below, each entry is listed alongside its reported post-emergence action rating, Avena.
// return just the number, without any unit appended

Use these answered entries as a reference point.
Field post-emergence action rating, Avena (entry CCC(=O)OC1=C(C(=O)c2ccc(C(F)(F)F)nc2C)C(=O)C2CCC1C2 (stereo not drawn) [Compound 1.404] ) reads 2

Field post-emergence action rating, Avena (entry O=C(C1=C(O)C2CCC(C2)C1=O)c1ccc(C(F)(F)F)nc1C(F)F (stereo not drawn) [Compound 1.005] ) reads 2

Field post-emergence action rating, Avena (entry Cc1cc(C(F)(F)F)ncc1C(=O)C1=C(O)C2CCC(C2)C1=O (stereo not drawn) [Compound 1.362] ) reads 3

Field post-emergence action rating, Avena (entry COCCc1nc(C(F)(F)F)ccc1C(=O)C1=C(O)C2CCC(C2)C1=O (stereo not drawn) [Compound 1.023] ) reads 2

Field post-emergence action rating, Avena (entry Cc1nc(C(F)(F)F)ccc1C(=O)C1=C(O)C(C)(C)C=CC1=O [Compound 5.085] ) reads 3

In the following, a different compound is considered.
Field post-emergence action rating, Avena (entry CC=CC(=O)OC1=C(C(=O)c2ccc(C(F)(F)F)nc2C)C(=O)C2CCC1C2 (stereo not drawn) [Compound 1.406] ) reads 2

====

Below, each entry is listed alongside its reported post-emergence action rating, Solanum.
System: Monocotyledonous and dicotyledonous test plants
protocol.summary: Example B2: post-emergence herbicidal action, 2 kg of AS/ha
Type: in vivo
Design: key: 1 = complete damage, 9 = no effect
protocol.conditions: test plant Solanum, 4- to 6-leaf stage, about 18 days, scale 1-9
// return just the number, without any unit appended

Use these answered entries as a reference point.
The recorded post-emergence action rating, Solanum with Monocotyledonous and dicotyledonous test plants for Cc1nc(C(F)(F)F)ccc1C(=O)C1=C(O)C(C)(C)ON(C)C1=O [Compound 4.009] was 1

The recorded post-emergence action rating, Solanum with Monocotyledonous and dicotyledonous test plants for O=C(C1=C(O)C2CCC(C2)C1=O)c1ccc(C(F)(F)F)nc1 (stereo not shown) [Compound 1.01] was 2

The recorded post-emergence action rating, Solanum with Monocotyledonous and dicotyledonous test plants for O=C(C1=C(O)C2CCC(C2)C1=O)c1ccc(C(F)(F)F)nc1C1CC1 (stereo not shown) [Compound 1.042] was 2

In the following, a different compound is considered.
The recorded post-emergence action rating, Solanum with Monocotyledonous and dicotyledonous test plants for CS(=O)(=O)Cc1nc(C(F)(F)F)ccc1C(=O)C1=C(O)C2CCC(C2)C1=O (stereo not shown) [Compound 1.026] was 1

====

Below, each entry is listed alongside its reported post-emergence action rating, Avena.
Tested on: Monocotyledonous and dicotyledonous test plants
protocol.summary: Example B2: post-emergence herbicidal action, 2 kg of AS/ha
Assay type: in vivo
Parameters: key: 1 = complete damage, 9 = no effect
protocol.conditions: test plant Avena, 4- to 6-leaf stage, about 18 days, scale 1-9
Excerpt: […]

Field post-emergence action rating, Avena (entry Cc1nc(C(F)(F)F)ccc1C(=O)C1=C(OC(=O)c2ccccc2)C2CCC(C2)C1=O (centres unmarked) ) reads 2

More entries:
Field post-emergence action rating, Avena (entry Cc1nc(C(F)(F)F)ccc1C(=O)C1=C(O)C2CCC(C2)C1=O (centres unmarked) ) reads 1

Field post-emergence action rating, Avena (entry O=C(C1=C(O)C2CCC(C2)C1=O)c1ccc(C(F)(F)F)nc1C(F)(F)F (centres unmarked) ) reads 2

Field post-emergence action rating, Avena (entry Cc1nc(C(F)(F)C(F)(F)F)ccc1C(=O)C1=C(O)C2CCC(C2)C1=O (centres unmarked) ) reads 2

Field post-emergence action rating, Avena (entry Cc1nc(C(F)(F)F)ccc1C(=O)C1=C(Sc2ccccc2)C2CCC(C2)C1=O (centres unmarked) ) reads 2
